# Test system: P388 leukemia ip, CD2F1 mice, survival T/C
# protocol: NCI In Vivo Anticancer Drug Screen. Data for tumor model P388 Leukemia (intraperitoneal) in CD2F1 (CDF1) mice
# stated_conditions: endpoint: median survival time; dose: 15.0 mg/kg/injection; schedule: Q01DX005 (ip); vehicle: saline with Tween-80; higher = longer survival
Inconclusive results and toxic doses are left out.
reported_endpoint: T/C

molecule=Cc1cc2nc(CC(=O)c3cccc([N+](=O)[O-])c3)c(=O)[nH]c2cc1C reported_endpoint=T/C result="96 % of control"
molecule=Oc1ccc(Br)cc1C=NCCS reported_endpoint=T/C result="97 % of control"
molecule="NCCCCCC(CCN)SCC1OC(n2cnc3c(N)ncnc32)C(O)C1O (stereo not drawn)" reported_endpoint=T/C result="109 % of control"
molecule=ClC(Cl)(Cl)C(=NNc1ccccc1)C(Cl)(Cl)Cl reported_endpoint=T/C result="104 % of control"
molecule=S=CN1CCCCC1 reported_endpoint=T/C result="98 % of control"

Sample N#CC1(C#N)C2CCCCC21 (stereo not drawn) ; T/C observed: 96 % of control

Sample `O=C(O)/C(Cl)=C(\Cl)C(=O)Nc1ccc(Br)cc1` ; T/C observed: 102 % of control

Sample `Cc1nc2ccc(N)cc2oc1=O` ; T/C observed: 100 % of control
